// data source = PubChem BioAssay AID463195

Experiment Description: wild-type TIM10 yeast growth inhibition – luminescence, uHTS, counter-screen for tim10-1 yeast inhibitor project, primary screen (AID 463195);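 note: wild-type TIM10 isogenic control strain grown at permissive 25 °C; 0% = DMSO yeast wells and 100% = minimal medium wells without yeast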
Experimental Setup: S. cerevisiae TIM10 strain growth, BacTiter-Glo luminescence, 24 h; at 10 µM
The whole screen tested about 330,000 compounds, of which about 4,600 (1.4%) were called active.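 Rule for the calls: active = inhibition of 40% or more at the single tested concentration; inactive = the rest.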 The sample as a whole holds a higher share of actives than the screen did.
Outcomes: Yes for active, No for inactive

compound="COc1ccc(/C=C(\\C#N)C(=O)OCC(=O)N(C)C2CCS(=O)(=O)C2)cc1 (stereo not drawn)" label_class=No
compound="Cc1ccc(C(C[N+](=O)[O-])c2c(C)cc3ccccn23)cc1 (stereo not drawn)" label_class=No
compound=COc1ccc2ccn(C)c2c1 label_class=No
compound=Cc1cc(N=Nc2ccc3ccccc3c2)ccc1O label_class=Yes
compound=CC(=O)Oc1ccc(N(C(C)=O)S(=O)(=O)c2ccc3ccccc3c2)cc1Br label_class=Yes
compound="CC(CC(=O)Nc1ccccc1)n1ccnc1 (stereo not drawn)" label_class=No
compound="CCOC(=O)C1=C(C)NC(=O)N(C(C)=O)C1c1ccc(Cl)cc1 (stereo not drawn)" label_class=No
compound="CCOC(=O)c1ccc(N2C(=O)CC(N3CCN(C(=O)c4ccccc4)CC3)C2=O)cc1 (stereo not drawn)" label_class=No
compound=Cc1[nH]n(C(N)=S)c(=O)c1N=Nc1ccc(Cl)cc1Cl label_class=Yes
compound=Cc1cc(OC(=O)c2c(Cl)cccc2Cl)nc(C)n1 label_class=No
compound="CCOc1ccc(N(CC(=O)NCC2CCCO2)S(=O)(=O)c2ccc(C)cc2)cc1 (stereo not drawn)" label_class=No
compound=COc1cccc(-n2cc3c(c2-c2ccccc2)c(=O)n(C)c(=O)n3C)c1 label_class=No
compound=O=C(OCC(=O)N1CCN(c2ccccc2)CC1)c1ccc([N+](=O)[O-])s1 label_class=No
compound=O=C1N[C@H](Cc2c[nH]c3ccccc23)COC(=O)[C@H](Cc2ccc(F)cc2)C/C=C\C[C@H]1CC(=O)N(CCO)Cc1ccccc1 label_class=No
compound=CCOc1cc(-c2cc(-c3ccc(NC(C)=O)cc3)nc(N)c2C#N)ccc1O label_class=No
compound=Cc1ccc(NNC(=O)c2c(F)cccc2Cl)cc1Cl label_class=No
compound="CCOC(=O)C1Sc2[nH]c(=O)sc2C(c2ccc(Cl)cc2)C1C(=O)OCC (stereo not drawn)" label_class=Yes
compound=CCCCc1cc2c(s1)CCCC/C2=N/O label_class=No

###

Experiment Description: wild-type TIM10 yeast growth inhibition – luminescence, uHTS, counter-screen for tim10-1 yeast inhibitor project, primary screen (AID 463195);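 note: wild-type TIM10 isogenic control strain grown at permissive 25 °C; 0% = DMSO yeast wells and 100% = minimal medium wells without yeast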
Experimental Setup: S. cerevisiae TIM10 strain growth, BacTiter-Glo luminescence, 24 h; at 10 µM; active compounds read high
In all, about 330,000 compounds went through this assay and about 4,600 (1.4%) were called active. This excerpt belongs to a sample that is enriched for actives.
# inhibition annotations
Attribute Measured: inhibition (%)

compound="CC(C)(C)C1CCC(=NNC(=O)c2cc(-c3ccccc3)n[nH]2)CC1 (configuration not stated)" attribute_measured=inhibition readout_value=-10.2
compound="CCn1nc(C)c(CNC(=O)C2CCC(=O)N(Cc3cccc(F)c3)C2)c1C (configuration not stated)" attribute_measured=inhibition readout_value=-0.612
compound=Nc1ncnc2c1ncn2[C@@H]1O[C@H](CNS(=O)(=O)c2ccc(-c3ccno3)s2)[C@@H](O)[C@H]1O attribute_measured=inhibition readout_value=-1.72
compound=CCOCCCn1c(SCC(=O)Nc2cc(OC)ccc2OC)nc2ccccc2c1=O attribute_measured=inhibition readout_value=11.4
compound=Cc1cc(C)cc(NS(=O)(=O)Cc2ccccc2)c1 attribute_measured=inhibition readout_value=-1.77
compound=CSc1ccccc1NC(=O)c1cc(C2CC2)on1 attribute_measured=inhibition readout_value=7.03
compound=CCn1c(/C=C/c2ccc([N+](=O)[O-])o2)nc2ccccc2c1=O attribute_measured=inhibition readout_value=49.9
